Assay: inhibitors of hydroxyurea-induced Chk1 phosphorylation, primary screen, imaging, HeLa, phospho-Chk1 antibody, percent positive cells (AID 1186)
Conditions: hydroxyurea-induced phospho-Chk1 immunofluorescence imaging, higher = more signal
Decide using z-score: a value greater than or equal to 0.6 is label 1, a smaller one is label 0.

IN: Is reported z-score greater than or equal to 0.6 here: CC(C)N1C(=O)[C@@]2(c3ccc([N+](=O)[O-])cc3)CC(=O)N(CC34CC5CC(CC(C5)C3)C4)[C@@H]2c2ccc(CO)cc21
OUT: label 0

IN: Is reported z-score greater than or equal to 0.6 here: COCCOC(=O)N1C(=O)[C@@]2(c3cc(C#CCCO)ccc31)[C@H](c1ccc(O)cc1)N1[C@H](c3ccccc3)[C@H](c3ccccc3)OC(=O)[C@H]1[C@@H]2C(N)=O
OUT: label 0

IN: Is reported z-score greater than or equal to 0.6 here: COc1ccc(C(=O)Nc2cccc(CN3C(=O)[C@@]4(O[C@@H](CCn5cc(CCO)nn5)[C@H]([Si](C)(C)c5ccc(OC)cc5)[C@H]4C)c4ccccc43)c2)cc1
OUT: label 0

IN: Is reported z-score greater than or equal to 0.6 here: COCCOC(=O)N1C(=O)[C@@]2(c3cc(C#CC4=CCCCC4)ccc31)[C@H](C(=O)NC[C@H](O)c1ccccc1)[C@H]1C(=O)O[C@H](c3ccccc3)[C@H](c3ccccc3)N1[C@@H]2c1ccc(O)cc1
OUT: label 0

IN: Is reported z-score greater than or equal to 0.6 here: COc1ccc(C(O)C2C=CC3C(=O)NC(=O)C3N2Nc2ccccn2)cc1OCc1ccccc1 (stereo unspecified)
OUT: label 1

---

Assay: small-molecule binders of probe aNOTCH3, primary screen, biochemical, small-molecule microarray, 635/667 nm fluorescence (AID 1120);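 also: probe is a biotin-tagged antibody raised against NOTCH3 rather than NOTCH3 protein; score merges spot fluorescence near 667 nm with spot signal to noise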
Details: higher = more signal
Decide using composite z-score: a value greater than or equal to 0.06 is Satisfied, a smaller one is Not satisfied.

IN: Is reported composite z-score greater than or equal to 0.06 here: O=C1C[C@@](C(=O)NC2CC2)(c2ccc([N+](=O)[O-])cc2)[C@@H](c2ccc(CO)cc2)N1CC12CC3CC(CC(C3)C1)C2
OUT: Not satisfied

IN: Is reported composite z-score greater than or equal to 0.06 here: COC(=O)c1ccc(C(O)C2C=CC3C(=O)N(C)C(=O)C3N2NC(=O)OC(C)(C)C)o1 (stereo not given)
OUT: Satisfied

IN: Is reported composite z-score greater than or equal to 0.06 here: CCCC[C@@H]1C[C@H]1[C@@H](NC(=O)c1ccc(-c2ccccc2)cc1)c1ccc(-c2ccccc2)cc1
OUT: Not satisfied

IN: Is reported composite z-score greater than or equal to 0.06 here: CCC(CC)C(O)C1C=CC2C(=O)N(c3ccccc3)C(=O)C2N1Nc1ccc(C#N)cc1 (stereo not given)
OUT: Satisfied

IN: Is reported composite z-score greater than or equal to 0.06 here: C=C(COC)C(=O)CC[C@@H](OC(=O)c1cccnc1)c1ccc(CO)o1
OUT: Not satisfied

IN: Is reported composite z-score greater than or equal to 0.06 here: C[C@H]1NC(=O)[C@H](Cc2ccccc2)NC(=O)[C@@]23C(=O)N[C@@H](Cc4ccccc4)C2[C@H](C)[C@@]2(C)O[C@H]2C3/C=C/C/C=C\CNC1=O (stereo not given in full)
OUT: Not satisfied

IN: Is reported composite z-score greater than or equal to 0.06 here: COC(=O)c1ccc(C(O)C2C=CC3C(=O)N(c4ccccc4)C(=O)C3N2Nc2ccc(C#N)cc2)o1 (stereo not given)
OUT: Not satisfied

IN: Is reported composite z-score greater than or equal to 0.06 here: CC(C)N1C(=O)[C@@]2(c3ccc([N+](=O)[O-])cc3)CC(=O)N(CC34CC5CC(CC(C5)C3)C4)[C@@H]2c2ccc(CO)cc21
OUT: Satisfied

IN: Is reported composite z-score greater than or equal to 0.06 here: CC(C)c1ccc(NN2C(C(O)c3cccc(O)c3)C=CC3C(=O)N(c4ccccc4)C(=O)C32)cc1 (stereo not given)
OUT: Satisfied

IN: Is reported composite z-score greater than or equal to 0.06 here: CN1CCC(CCCO)=CC1c1ccc(CN2CCCC2)cc1 (stereo not given)
OUT: Satisfied

IN: Is reported composite z-score greater than or equal to 0.06 here: O=C1C2C=CC(C(O)c3ccc(F)cc3)N(Nc3ccccc3)C2C(=O)N1c1ccccc1 (stereo not given)
OUT: Satisfied

IN: Is reported composite z-score greater than or equal to 0.06 here: CC(C)C(O)C1C=CC2C(=O)N(c3ccccc3)C(=O)C2N1Nc1ccc(C#N)cc1 (stereo not given)
OUT: Satisfied

IN: Is reported composite z-score greater than or equal to 0.06 here: COc1ccc(C(=O)Nc2cccc(CN3C(=O)[C@@]4(O[C@@H](CCn5cc(CCO)nn5)[C@H]([Si](C)(C)c5ccc(OC)cc5)[C@H]4C)c4ccccc43)c2)cc1
OUT: Satisfied

IN: Is reported composite z-score greater than or equal to 0.06 here: CC(C)C[C@@H]1NC(=O)[C@H]2C[C@@H](C(=O)NCCCCCCNC(=O)CS)[C@@H](c3cccc(OCCO)c3)N2C1=O
OUT: Not satisfied

IN: Is reported composite z-score greater than or equal to 0.06 here: [N-]=[N+]=NCc1ccccc1[C@H]1OC(c2ccc(OCCCO)cc2)=N[C@@]1(CCS(=O)(=O)c1ccccc1)C(=O)N1CCOCC1
OUT: Satisfied

IN: Is reported composite z-score greater than or equal to 0.06 here: O=C1[C@]2(CO)C=C(Br)[C@@H](C[C@@H]2c2ccccc2)[C@@]12CO2
OUT: Not satisfied

IN: Is reported composite z-score greater than or equal to 0.06 here: CC(C)N1CC=CC23O[C@@H]4C=CCOC(=O)[C@@H]4[C@H]2C(=O)N(CCO)[C@@H]3C1=O (stereo not given in full)
OUT: Not satisfied

IN: Is reported composite z-score greater than or equal to 0.06 here: C=C[C@H](C)[C@@H](O)c1ccc(O)c2ccccc12
OUT: Not satisfied

IN: Is reported composite z-score greater than or equal to 0.06 here: CCCCC=C[C@@H](NC(=O)c1ccco1)c1ccccc1
OUT: Not satisfied

IN: Is reported composite z-score greater than or equal to 0.06 here: CC(C)C(=C=CC[C@H](O)c1ccccc1OCCO)C[C@H](O)c1ccccn1
OUT: Satisfied

IN: Is reported composite z-score greater than or equal to 0.06 here: CCCCCN1CC=CC23O[C@@H]4/C=C\CCC(C)OC(=O)C4[C@H]2C(=O)N(CCCCCO)[C@@H]3C1=O (stereo not given in full)
OUT: Not satisfied

IN: Is reported composite z-score greater than or equal to 0.06 here: COCCOC(=O)N1C(=O)[C@@]2(c3cc(C#CCNC(N)=O)ccc31)[C@H](c1ccccc1OCCO)N1[C@H](c3ccccc3)[C@H](c3ccccc3)OC(=O)[C@H]1[C@@H]2C(N)=O
OUT: Not satisfied

IN: Is reported composite z-score greater than or equal to 0.06 here: O=C1O[C@@H](c2ccccc2)[C@@H](c2ccccc2)N2[C@@H](c3ccccc3OCCO)[C@]3(C(=O)Nc4ccc(C#CC5(O)CCCCCC5)cc43)[C@@H](C(=O)Nc3nc4ccccc4s3)[C@H]12
OUT: Satisfied

IN: Is reported composite z-score greater than or equal to 0.06 here: COC(=O)[C@@]1(Cc2ccccc2)[C@H]2c3cc(C(=O)N4CCCC4)n(C)c3C[C@H]2CN1C(=O)c1ccccc1
OUT: Satisfied

IN: Is reported composite z-score greater than or equal to 0.06 here: COCCOC(=O)N1C(=O)[C@@]2(c3cc(C#CCC(C(=O)OC)C(=O)OC)ccc31)[C@H](C(=O)N1CCN(c3ncccn3)CC1)[C@H]1C(=O)O[C@H](c3ccccc3)[C@H](c3ccccc3)N1[C@@H]2c1ccc(OCCO)cc1
OUT: Not satisfied

IN: Is reported composite z-score greater than or equal to 0.06 here: CCOC(=O)C[C@H]1[C@H](OC(=O)c2ccc(-c3ccccc3)cc2)[C@@H](NC(=O)c2ccc3ccccc3c2)c2cc(OCCCO)ccc2N1C(=O)Cc1ccc(OC)cc1
OUT: Not satisfied

IN: Is reported composite z-score greater than or equal to 0.06 here: COc1cc2c(cc1O)C(C)N(Cc1cccc(OC(F)(F)F)c1)CC2 (stereo not given)
OUT: Not satisfied

IN: Is reported composite z-score greater than or equal to 0.06 here: C=CCC(OC(C)=O)[C@@H]1[C@@H](N(Cc2cccc3ccccc23)C(=O)c2cccc3ccccc23)c2cc(OCCCO)ccc2N1C(=O)c1ccc2ccccc2n1 (stereo not given in full)
OUT: Not satisfied

IN: Is reported composite z-score greater than or equal to 0.06 here: N#Cc1ccc(NN2C(C(O)c3cccs3)C=CC3C(=O)N(c4ccccc4)C(=O)C32)cc1 (stereo not given)
OUT: Satisfied

IN: Is reported composite z-score greater than or equal to 0.06 here: COC(=O)[C@@]1(Cc2ccc(OC)cc2)[C@H]2c3cc(C(=O)N(C)C)n(Cc4c(OC)[nH]cc(C)c4=O)c3C[C@H]2CN1C(=O)c1ccccc1
OUT: Satisfied

Source listed as PubChem BioAssay.
